- Protocol: E. coli growth modulation, two-sided OD650, primary screen, E. coli filamentation project, strain DRC41, 24 h (AID 1093);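 note: MC1000 strain lacking acrAB efflux and sulA so SOS filamentation is blocked; test concentration not given here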
- Measurement context: OD650, 24 h, higher = more signal, called active from +8 up or from −8 down
The source made the active and inactive calls.
Test readout: z-score

As a guide, the following entries are already answered.
COC(=O)c1ccc(OC)c(/C=C\CC(OC(=O)c2ccncc2)c2ccccc2)c1 (stereo not given) : 1.27 (inactive)
CCCCCCc1nc(-c2ccc(OC)nc2)c(C)c2c1[Si](C(C)C)(C(C)C)OC2 : 0.836 (inactive)
COC(=O)c1c2oc(c1C(=O)OC)C(=O)N[C@H](Cc1ccccc1)Cn1cc(nn1)C1(CCCCC1)NC(=O)N[C@H](CO)CC2 : 2.01 (inactive)
O=C1C[C@@](C(=O)NCC(F)(F)F)(c2ccc([N+](=O)[O-])cc2)[C@@H](c2ccc(CO)cc2I)N1CC12CC3CC(CC(C3)C1)C2 : 0.548 (inactive)
CC(C)[Si](C#Cc1ccccc1)(O[C@H](c1ccccc1)c1cn(Cc2ccccc2)nn1)C(C)C : 2.14 (inactive)

For each of the compounds below, state z-score.
1. CC(C)[Si]1(C(C)C)OCc2cc(-c3ccc(-c4ccc(Cl)c(Cl)c4)o3)nc(-c3ccc(Oc4ccccc4)cc3)c21
2. COc1ccc(NN2C(C(O)c3ccccc3)C=CC3C(=O)N(C4CCCCC4)C(=O)C32)cc1 (stereo not given)
3. C=CCOC(=O)[C@H]1[C@@H]2C(=O)O[C@@H](c3ccccc3)[C@@H](c3ccccc3)N2[C@@H](c2ccc(OCCOC(=O)[C@H]3C[C@H]4C(=O)NCC(=O)N4[C@H]3c3cccc(OCCO)c3)cc2)[C@]12C(=O)Nc1ccc(I)cc12
4. COC(=O)C(CC#Cc1ccc2c(c1)[C@]1(C(=O)N2)[C@H](c2ccc(OCCO)cc2)N2[C@H](c3ccccc3)[C@H](c3ccccc3)OC(=O)[C@H]2[C@@H]1C(N)=O)C(=O)OC
5. [N-]=[N+]=Nc1ccccc1C[C@@]1(C(=O)NCC(O)CO)N=C(c2ccc(OCCCO)cc2)O[C@@H]1c1ccccc1N=[N+]=[N-] (stereo not given in full)

*A*
1: -0.888 (inactive); 2: 0.0456 (inactive); 3: 0.0763 (inactive); 4: -0.0446 (inactive); 5: 0.616 (inactive)

These measurements were taken from PubChem BioAssay.
